Plant response rating, B. signalgrass values for the compounds below.
# System: surinam grass
# assay_overview: Test B pre/postemergence surinam grass
# Assay type: in vivo, Brachiaria decumbens
# cond: Postemergence, Rate 500 g/ha; scale of 0 to 10 where 0 is no effect and 10 is complete control
reported_metric: Plant response rating, B. signalgrass

>>> result("CCc1nc(C)c(C(C)n2c(=O)on(C(=O)N(c3ccc(F)cc3F)C(C)C)c2=O)s1 (stereo not shown)")
3
>>> result("CC(C)N(C(=O)n1oc(=O)n(CC2=NOCCC2)c1=O)c1ccc(F)cc1")
7
>>> result("CC(C)N(C(=O)n1oc(=O)n(CCCCF)c1=O)c1ccccc1")
8
>>> result("CC(Cl)=CCn1c(=O)on(C(=O)N(c2ccccc2)C(C)C)c1=O")
0
>>> result("CCC(C)n1c(=O)on(C(=O)N(c2ccc(F)cc2)C(C)C)c1=O (stereo not shown)")
8
>>> result("CC(C)N(C(=O)n1oc(=O)n(CC(=O)C2CCC2)c1=O)c1ccccc1")
4
>>> result("CC(C)N(C(=O)n1oc(=O)n(CC2CCCCO2)c1=O)c1ccc(F)cc1 (stereo not shown)")
8
